Task for the reader: assign each of the following compounds its reported viability.
Test: reversal of MRP1-mediated doxorubicin resistance, pilot screen, H69AR cells, doxorubicin co-treatment (AID 601)
Conditions: H69AR cells + 2 uM doxorubicin, CellTiter-Glo, 72 h; measured here: viability with 2 uM doxorubicin; at 10 µM; stronger effect = lower value
# value in %; strip the unit string

Name the recorded viability for CN(C)c1cccc(NC(=O)CCc2ccccc2)c1 .
102

Another compound to check: CCOc1cc(C(=O)N(C)Cc2cc3cc(OC)ccc3[nH]c2=O)cc(OCC)c1OCC
96.2

Record: Cc1ccc2c(c1)-c1c(cnn1CC(=O)Nc1ccccc1N1CCN(C)CC1)CO2
80.9

Also, Cc1cc(NC(=O)CCC(=O)N(CC2CCCO2)C(C(=O)NC2CCCC2)c2ccccc2C)no1 (stereo not drawn) please.
83.2

Check O=C(CCn1c(=O)c2ccccc2n(CC(=O)NCCC2=CCCCC2)c1=O)NCc1ccco1 too.
87

Now try CC(=O)Nc1ccc(-c2cc3ccccc3o2)cc1 .
83.9

Repeat with Cc1ccc2c(c1)N(CC(=O)N1CCCCC1c1cccnc1)C(=O)CO2 (stereo not drawn)
99

Similarly, CCc1ccc(NC(=O)c2cc(-c3ccco3)on2)cc1 ?
108

Another: Cc1ccc(S(=O)(=O)NCCCNC(=O)N2CCOCC2)cc1
92.4

Try this compound too: Cc1cccc(CC(=O)Nc2c3c(nn2-c2cccc(Cl)c2)CS(=O)C3)c1 (stereo not drawn)
96.1

Now consider O=C(Cn1cnc2c(cnn2-c2ccccc2)c1=O)NCCc1ccccc1 and answer again.
90.8

Ok, now Cn1nc(-c2ccc(C(=O)NCC3CCCO3)cc2)c2ccccc2c1=O (stereo not drawn)
71.2

Proceed to O=C(Nc1ccc(NC(=O)c2ccco2)nc1)c1cccnc1
90.6

Also CC(C)(C)NCC(O)COc1cccc2c1C[C@H](O)[C@H](O)C2 (stereo partly drawn) ?
92.8

Now consider O=C(O)Cn1nc2ccccc2n1 .
90.3

Further, for COc1ccc(OC)c(NC(=O)CSc2nnc(-c3ccco3)n2-c2ccccc2)c1 ?
85.4

Same question, COc1ccc(C(=O)Nc2ccccc2C(=O)NCCN2CCOCC2)cc1 this time
92.8

Follow-up item: COc1cc(C(=O)Nc2cc(-c3ccccc3)[nH]n2)cc(OC)c1OC
71.7

Next compound: O=C(c1ccccc1)c1ccc(N2CCNCC2)cc1
89.9

# iterate: COc1ccc2oc(C)c(C(=O)Cn3ccnc3)c2c1
90.1

Now consider CC1CCCN(c2ccc(C(=O)NCc3cccs3)cn2)C1 (stereo not drawn) .
77.9

Item: N#Cc1cc2ccccc2nc1SCC(=O)Nc1ccccc1N1CCOCC1
93

Cc1cc(NS(=O)(=O)Cc2ccccc2)cc(C)c1OCC(=O)N1CCOCC1 ?
74.4

Next up: CCOc1ccccc1-n1nnnc1SCC(=O)Nc1cc2oc3ccccc3c2cc1OC
54.7

Please answer likewise for CCn1nccc1C(=O)Nc1nccs1
83.7

# iterate: Nn1cc(-c2ccccc2)nc1SCC(=O)N1CCN(S(=O)(=O)c2ccccc2)CC1
102

Record: Cc1[nH]nc(N=CC2=C(O)CC(C)(C)CC2=O)c1-c1ccccc1
95.3

Another compound to check: Cc1occc1C(=O)Nc1cccc2ccccc12
86.1

Now the compound CC1CCc2cc(F)cc3c(O)c(C(=O)Nc4cnccn4)c(=O)n1c23 (stereo not drawn)
94.2

Moving on to the next compound: COC(=O)CNc1nc(C2CC2)nc2c1nnn2Cc1ccccc1Cl
97

Now the same for O=S(=O)(c1cccc2cnccc12)N1CCCNCC1
95.5

Now the compound COc1ccc(OC)c(S(=O)(=O)N2CCC(C(=O)NCc3ccccc3OC)CC2)c1
103

COC(=O)C1=C(N)Oc2cc(C)n(Cc3ccncc3)c(=O)c2C1c1cccnc1 (stereo not drawn) ?
84.6

Field entry: COc1ccccc1-c1c(C)nn2c(N3CCC4(CC3)OCCO4)cc(C)nc12
29.3

Try this compound next: O=C(c1ncn[nH]1)N1CCN(c2nc(-c3ccccc3)cs2)CC1
90.9

Ok, now Cc1c(C#N)c(N)c(C(=O)c2ccccc2)n1Cc1ccccc1
87.3

Repeat for the following compound: CCCOc1ccc(C2C(C(=O)c3ccc(C)o3)=C(O)C(=O)N2Cc2cccnc2)cc1 (stereo not drawn)
94

Try CNC(=O)CSc1nc2c(c(=O)n(C)c(=O)n2C)n1Cc1ccc(C)cc1 next.
79.9
